- ASSAY REMARKS: Azacitidine plasma pharmacokinetics, non-compartmental analysis
- Format: in vivo, patients
- CONDITION CONTEXT: human, plasma, intravenous, azacitidine/oxaliplatin 50/30 mg/m^2; C1D1; n = 22; mean (SD)
ATTRIBUTE MEASURED: AUC

// sample Nc1ncn([C@@H]2O[C@H](CO)[C@@H](O)[C@H]2O)c(=O)n1 , its AUC was 404 ng·h/mL

* * *

- ASSAY REMARKS: Azacitidine plasma pharmacokinetics, non-compartmental analysis
- Format: in vivo, patients
- CONDITION CONTEXT: human, plasma, intravenous, azacitidine/oxaliplatin 40/30 mg/m^2; C1D5; n = 3; mean (SD)
ATTRIBUTE MEASURED: AUC (µg·h/mL)
Your answer should be a plain number; it is taken to be in µg·h/mL.

Reported AUC of Nc1ncn([C@@H]2O[C@H](CO)[C@@H](O)[C@H]2O)c(=O)n1 : 0.206

* * *

- ASSAY REMARKS: Azacitidine plasma pharmacokinetics, non-compartmental analysis
- Type: in vivo, patients
- CONDITION CONTEXT: human, plasma, intravenous, azacitidine/oxaliplatin 40/30 mg/m^2; C1D1; n = 3; mean (SD)
ATTRIBUTE MEASURED: half-life (min)
// return numeric value only (unit: min, not printed)

Reported half-life ( Nc1ncn([C@@H]2O[C@H](CO)[C@@H](O)[C@H]2O)c(=O)n1 ) = 9.6

* * *

- ASSAY REMARKS: Azacitidine plasma pharmacokinetics, non-compartmental analysis
- Type: in vivo, patients
- CONDITION CONTEXT: human, plasma, intravenous, azacitidine/oxaliplatin 25/30 mg/m^2; C1D5; n = 3; mean (SD)
ATTRIBUTE MEASURED: AUC (ng·h/mL)
Give a bare numeral; the unit ng·h/mL is implied.

AUC reported for this molecule Nc1ncn([C@@H]2O[C@H](CO)[C@@H](O)[C@H]2O)c(=O)n1 [azacitidine] : 208

* * *

- ASSAY REMARKS: Azacitidine plasma pharmacokinetics, non-compartmental analysis
- Assay type: in vivo, patients
- CONDITION CONTEXT: human, plasma, intravenous, azacitidine/oxaliplatin 20/15 mg/m^2; C1D5; n = 3; mean (SD); read-out: AUCinf
ATTRIBUTE MEASURED: AUC(0-inf)

Reported AUC(0-inf) of Nc1ncn([C@@H]2O[C@H](CO)[C@@H](O)[C@H]2O)c(=O)n1 [azacitidine] : 196 ng·h/mL

From: paper PMC4371799
